# Tested on: MiaPaCa-2 cells
# Protocol Notes: Cell viability assay in 2D cell culture (CellTiter-Glo), MiaPaCa-2
# Format: cell-based
# Condition Context: Homo sapiens, MIA PaCa-2, 96 h, erlotinib alone (Compound I-5 not present)

{"columns": ["Compound Structure String", "EC50"],
 "data": [
  ["C#Cc1cccc(Nc2ncnc3cc(OCCOC)c(OCCOC)cc23)c1", "> 30 µM"]
]}

* * *

# Test system: MiaPaCa-2 cells
# Protocol Notes: Cell viability assay in 2D cell culture (CellTiter-Glo), MiaPaCa-2
# Type: cell-based
# Condition Context: Homo sapiens, MIA PaCa-2, 96 h, Compound I-5 present at 2.5 μM
pEC50: −log10 of the molar value.
Property Label: pEC50

{"columns": ["Compound Structure String", "Reported"],
 "data": [
  ["C#Cc1cccc(Nc2ncnc3cc(OCCOC)c(OCCOC)cc23)c1", 5.19]
]}

* * *

# Test system: A549 cells
# Protocol Notes: Cell viability assay in 2D cell culture (CellTiter-Glo), A549
# Format: cell-based
# Condition Context: Homo sapiens, A549, 96 h, Compound I-7 present at 6 μM
# Protocol: […] For viability analysis, cells were seeded into 96-well plates at 2×10^3-6×10^3 cells/well; depending on cell size and rate of proliferation aiming for approximately 50% confluency. […] Before reading the results cells were incubated for 96 hours in 5% CO2 incubator at 37° C. […] Results were analyzed by CellTiter-Glo™ Luminescent Cell Viability Assay (Promega, cat. # G7571) according to the manufacturer's instructions using SpectraMAX Gemini Spectrophotometer (Molecular Devices).
Property Label: EC50 (nM)

{"columns": ["Compound Structure String", "Assay Target", "Unit Of Measure", "Reported"],
 "data": [
  ["CN(C)C/C=C/C(=O)Nc1cc2c(Nc3ccc(F)c(Cl)c3)ncnc2cc1O[C@H]1CCOC1", "A549 cells", "nM", 1000]
]}

* * *

# System: PC9 cells
# Protocol Notes: Cell viability assay in 2D cell culture (CellTiter-Glo), PC9
# Type: cell-based
# Condition Context: Homo sapiens, PC-9, 96 h, Compound I-5 present at 2 μM
Property Label: EC50 (nM)

{"columns": ["Compound", "Property Label", "Reported"],
 "data": [
  ["C#Cc1cccc(Nc2ncnc3cc(OCCOC)c(OCCOC)cc23)c1 [erlotinib]", "EC50", 9.3]
]}

* * *

# System: PANC1 cells
# Protocol Notes: Cell viability assay in 2D cell culture (CellTiter-Glo), PANC1
# Format: cell-based
# Condition Context: Homo sapiens, PANC-1, 96 h, Compound I-7 present at 2 μM
Property Label: EC50 (nM)

{"columns": ["Compound Structure String", "Property Label", "Unit Of Measure", "Reported"],
 "data": [
  ["CN(C)C/C=C/C(=O)Nc1cc2c(Nc3ccc(F)c(Cl)c3)ncnc2cc1O[C@H]1CCOC1", "EC50", "nM", 1800]
]}

* * *

pEC50 overview
# Tested on: PANC1 cells
# Protocol Notes: Cell viability assay in 2D cell culture (CellTiter-Glo), PANC1
# Format: cell-based
# Condition Context: Homo sapiens, PANC-1, 96 h, Compound I-7 present at 2 μM, read-out: EC50
pEC50: −log10 of the molar value.

{"columns": ["Compound Structure String", "pEC50"],
 "data": [
  ["C=CC(=O)Nc1cc(Nc2nccc(-c3cn(C)c4ccccc34)n2)c(OC)cc1N(C)CCN(C)C", 5.34],
  ["COc1cc2ncnc(Nc3ccc(F)c(Cl)c3)c2cc1NC(=O)/C=C/CN1CCCCC1", 5.00],
  ["C=CC(=O)Nc1cccc(Nc2nc(Nc3ccc(N4CCN(C(C)=O)CC4)cc3OC)ncc2C(F)(F)F)c1", 5.00]
]}

* * *

# System: H1975 spheroids
# Protocol Notes: Cell viability assay in 3D cell culture (spheroids), H1975
# Type: cell-based
# Condition Context: Homo sapiens, NCI-H1975, 168 h, seven days, regular growth media (FBS+), Compound I-7 not present
pEC50: −log10 of the molar value.

{"columns": ["Compound Structure String", "pEC50"],
 "data": [
  ["C=CC(=O)Nc1cc(Nc2nccc(-c3cn(C)c4ccccc34)n2)c(OC)cc1N(C)CCN(C)C", 9.17]
]}

* * *

# Tested on: H1975 spheroids
# Protocol Notes: Cell viability assay in 3D cell culture (spheroids), H1975
# Assay type: cell-based
# Condition Context: Homo sapiens, NCI-H1975, 168 h, seven days, serum starvation (FBS−), Compound I-7 not present
Property Label: EC50

{"columns": ["Compound Structure String", "Reported"],
 "data": [
  ["C=CC(=O)Nc1cc(Nc2nccc(-c3cn(C)c4ccccc34)n2)c(OC)cc1N(C)CCN(C)C", "3.3 nM"]
]}

* * *

# System: A549 cells
# Protocol Notes: Cell viability assay in 2D cell culture (CellTiter-Glo), A549
# Assay type: cell-based
# Condition Context: Homo sapiens, A549, 96 h, EGFR inhibitor alone (Compound I-7 not present), read-out: EC50
# Procedure: […] For viability analysis, cells were seeded into 96-well plates at 2×10^3-6×10^3 cells/well; depending on cell size and rate of proliferation aiming for approximately 50% confluency. […] Before reading the results cells were incubated for 96 hours in 5% CO2 incubator at 37° C. […] Results were analyzed by CellTiter-Glo™ Luminescent Cell Viability Assay (Promega, cat. # G7571) according to the manufacturer's instructions using SpectraMAX Gemini Spectrophotometer (Molecular Devices).
Property Label: EC50 (µM)

{"columns": ["Compound Structure String", "Reported"],
 "data": [
  ["C#Cc1cccc(Nc2ncnc3cc(OCCOC)c(OCCOC)cc23)c1", 10.4]
]}
